Measured values drawn from paper PMC6155732 for this set.

Consider the following molecules and their measured Cmax readings.
- Measurement notes: Pharmacokinetics of compounds 1–11 in rat plasma (UPLC-TQ/MS) after oral administration of HYD and plus-minus Haizao/Gancao decoctions
- Assay type: in vivo, Wistar rats (PTU-induced model of hypothyroidism)
- Conditions: Wistar, 12 mL/kg, group HYD, 12 mL/kg intragastrically, model rats, n = 6, mean ± S.D.
Write down the numeric answer in ng/mL and omit the unit.

Molecule smiles	Recorded value
O=C1C[C@@H](c2ccc(O[C@@H]3O[C@H](CO)[C@@H](O)[C@H](O)[C@H]3O)cc2)Oc2cc(O)ccc21	1600
CC1(C)[C@@H](O[C@H]2O[C@H](C(=O)O)[C@@H](O)[C@H](O)[C@H]2O[C@@H]2O[C@H](C(=O)O)[C@@H](O)[C@H](O)[C@H]2O)CC[C@]2(C)[C@H]3C(=O)C=C4[C@@H]5C[C@@](C)(C(=O)O)CC[C@]5(C)CC[C@@]4(C)[C@]3(C)CC[C@@H]12	1370
CC1(C)[C@@H](O)CC[C@]2(C)[C@H]3C(=O)C=C4[C@@H]5C[C@@](C)(C(=O)O)CC[C@]5(C)CC[C@@]4(C)[C@]3(C)CC[C@@H]12	504
C[C@@H]1O[C@@H](O[C@H]2[C@H](Oc3cc(O)c4c(c3)O[C@H](c3ccc(O)cc3)CC4=O)O[C@H](CO)[C@@H](O)[C@@H]2O)[C@H](O)[C@H](O)[C@H]1O	612
O=C1C[C@@H](c2ccc(O)cc2)Oc2cc(O)ccc21	358

State its Cmax: COc1ccc(-c2cc(=O)c3c(OC)c(OC)c(OC)c(OC)c3o2)cc1OC
1000

State its Cmax: COc1ccc2ccc(=O)oc2c1CC=C(C)C
458

State its Cmax: COc1c2ccoc2cc2oc(=O)ccc12
227
